- assay procedure: NCI Yeast Anticancer Drug Screen. Data for the mlh1 rad18 strain (AID 175)
- recorded conditions: S. cerevisiae mlh1 rad18 strain growth inhibition; at 50.0 µM; stronger effect = higher value
About 79,000 compounds went through this panel and 15% of them were active in at least one assay; those are over-represented in the sample as a whole.
measured metric: growth inhibition (%)
Dear colleague, please return just the value in %, with no unit written.

Some compounds with recorded growth inhibition:
compound	growth inhibition (%)
N#CSc1nc[nH]c1C(N)=O	-4.4
CCOP(=O)(CCCCCCP(=O)(OCC)OCC)OCC	32.9
N#CC(c1ccccc1)N(CCCCCCN(C(=O)c1ccccc1)C(C#N)c1ccccc1)C(=O)c1ccccc1 (configuration not stated)	-29.1
COc1cc(/C=N/NC(N)=O)cc(OC)c1O	-4.75
COc1cc(OC)c(NC(=O)NC(C)(C)C)cc1Cl	23.4
ClC1(Cl)CC1c1ccccc1 (configuration not stated)	14.7

Now look at this entry.
Exercise: Look up growth inhibition: `CN(CO)N=Nc1ccc(C(F)(F)F)cc1`
Key: 19.8

Where do the numbers come from? From PubChem BioAssay (NCI).
